Source: the supplement of paper PMC8671470

Tested on: HL-60
EXPERIMENT NOTES: cell viability (% survival relative to DMSO control); higher = less cytotoxic
ASSAY CONDITIONS: 10 µM; 72 h; co-treatment: GSK2194069 100 nM
MEASURED QUANTITY: cell viability
Answer with the number, then the unit.

- COMPOUND: "C=CCc1ccc2c(c1O)C(=O)c1ccccc1C2=O [R162]"
  cell viability: "97.1%"
- COMPOUND: "CC(Cc1ccc(O)c(O)c1)C(C)Cc1ccc(O)c(O)c1 (centres undefined) [Masoprocol]"
  cell viability: "21.8%"
- COMPOUND: "Sc1ncnc2nc[nH]c12 [6-mercaptopurine]"
  cell viability: "35.9%"
- COMPOUND: "Cc1ccc(S(=O)(=O)NC2c3ccccc3Oc3ccccc32)cc1 [AH-7614]"
  cell viability: "97.2%"
- COMPOUND: "C1CCC(C(CC2CCCCN2)C2CCCCC2)CC1.O=C(O)/C=C\\C(=O)O (centres undefined) [Perhexiline]"
  cell viability: "-1.86%"
- COMPOUND: "C[C@]12CC[C@H](O)CC1=CC[C@@H]1[C@@H]2CC[C@]2(C)C(c3cccnc3)=CC[C@@H]12 [Abiraterone]"
  cell viability: "105%"

Quick one: cell viability for Cc1coc2c1C(=O)C(=O)c1c-2ccc2c(C)cccc12 [Tanshinone I] ?
101%

Let us now turn to O=C1Oc2ccccc2C(=O)C1CC1C(=O)Oc2ccccc2C1=O (centres undefined) [Dicumarol]
85%

Let us now turn to Cc1c(-c2ccccc2)oc2c(C(=O)OCCN3CCCCC3)cccc2c1=O.Cl [Flavoxate]
91.7%
